Experiment: Relative viability of PBMCs by FACS analysis
Type: cell-based
Settings: 10 μM cic, 24 h, culture = 100%
Description: The peripheral blood lymphocytes (PBLs) out of the PBMCs were selected for the FACS analysis (FIG. 5). A toxicity of the cells induced a shift from viable cells to apoptotic cells (FIG. 6, 7). […] DMSO, the solvent of EA and cic, was given to the PBMCs in a ratio of 1:100, as control. The values are related to the culture-control and expressed as mean±standard error of the mean (SEM) taken from 5 separate measurements. In FIG. 5 (A) samples were measured after 24, 48 and 72 h. […]
PARAMETER: viability at 24 h, 10 μM (%)
State just the number; it will be interpreted in %.

-- ask Form field: reported viability at 24 h, 10 μM of Cc1cc(C2CCCCC2)n(O)c(=O)c1 [cic, Ciclopirox olamine]
-- reply 99.3
